biological target: Pantothenate synthetase (Mycobacterium tuberculosis (strain ATCC 25618 / H37Rv)) (UniProt P9WIL5); test: Coupled enzyme confirmation of inhibitors against recombinant Mtb PanC (AID 375); conditions: coupled enzyme assay; at 10 µM, hits give high values;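 note: 0% = full reaction with vehicle and 100% = no enzyme background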
Sequence (P9WIL5 whole entry, looked up): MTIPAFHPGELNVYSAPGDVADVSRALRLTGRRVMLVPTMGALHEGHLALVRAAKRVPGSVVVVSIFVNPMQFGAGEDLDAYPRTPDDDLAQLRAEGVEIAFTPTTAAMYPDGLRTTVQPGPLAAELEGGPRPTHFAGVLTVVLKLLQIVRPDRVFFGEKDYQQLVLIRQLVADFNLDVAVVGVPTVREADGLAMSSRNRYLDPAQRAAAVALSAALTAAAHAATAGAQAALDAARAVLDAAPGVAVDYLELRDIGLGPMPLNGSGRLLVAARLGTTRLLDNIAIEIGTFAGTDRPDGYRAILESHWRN
Active and inactive are the calls of the source. The rule behind the calls is not given here.
recorded.metric: inhibition

Below are worked cases with known answers.
[[record]]
molecule = "O=C(NC1CCN(Cc2nnnn2CCc2ccccc2)CC1)c1ccccc1F"
recorded_metric = "inhibition"
measured_value = "3% (inactive)"

[[record]]
molecule = "Cc1ccc(-c2nc(N)n(C(=O)c3cccnc3)n2)cc1"
recorded_metric = "inhibition"
measured_value = "0% (inactive)"

[[record]]
molecule = "C=C(C)C1Cc2c(C)nn(-c3nc(C)cc(C)n3)c2C1 (stereo unspecified)"
recorded_metric = "inhibition"
measured_value = "0% (inactive)"

[[record]]
molecule = "O=C(O)C1CC=CCC1C(=O)Nc1cccc(F)c1 (stereo unspecified)"
recorded_metric = "inhibition"
measured_value = "3% (inactive)"


Request: Please give measured inhibition of the following entry: "Cc1cc(C)c(C)c(S(=O)(=O)Nc2ccc(O)cc2)c1C"
Result: 10% (inactive)

Request: Please give measured inhibition of the following entry: "CC(C)c1cc(C(=O)Nc2cccnc2)no1"
Result: 3% (inactive)

# credit: PubChem BioAssay
